# TEST_CONTEXT: in isopropanol, 323.15 K

{"SMILES_RECORD": "CCCCCCCCCCCC[N+](C)(C)CCOc1ccccc1.[Br-]", "solubility (mole fraction)": 0.258}

###

# TEST_CONTEXT: in n-butanol, 323.15 K

{"SMILES_RECORD": "CCCCCCCCCCCC[N+](C)(C)CCOc1ccccc1.[Br-]", "solubility (mole fraction)": 0.346}

###

# TEST_CONTEXT: in tert-butanol, 313.15 K
OBSERVABLE: solubility (mole fraction)

{"SMILES_RECORD": "CCCCCCCCCCCC[N+](C)(C)CCOc1ccccc1.[Br-]", "OBSERVABLE": "solubility (mole fraction)", "VAL": 0.198}

Data credit: BigSolDB 2.1
